This collection of values is drawn from the supplement of paper PMC10567573.

B1: LMNB1 (parent)
chain: LYKEELEQTYHAKLENARLSSEMN

Variants of: B1
experiment: protein stability index of a GFP-peptide fusion (GPS, HEK-293T) (PSI 1-6); higher = more stable;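 further: lentivirally expressed fusions sorted by FACS into six bins by GFP to DsRed ratio, PSI derived from sequencing read proportions per bin multiplied by bin number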
measurement.parameters: c terminus: a fixed tail appended
attribute.measured: protein stability index
Number, no unit, nothing else.

IN: // returns reported protein stability index for input E7G
OUT: 3.23

IN: Any idea what protein stability index was measured for R18D ?
OUT: 3.7

IN: Please look up its protein stability index: E5R
OUT: 1.76

IN: Which protein stability index reading was recorded for the variant K13A ?
OUT: 3.93
